- Measured Target: human type 2 5α-reductase (Homo sapiens, UniProt P31213)
- Construct: microsomes
- Sequence (P31213 1-254): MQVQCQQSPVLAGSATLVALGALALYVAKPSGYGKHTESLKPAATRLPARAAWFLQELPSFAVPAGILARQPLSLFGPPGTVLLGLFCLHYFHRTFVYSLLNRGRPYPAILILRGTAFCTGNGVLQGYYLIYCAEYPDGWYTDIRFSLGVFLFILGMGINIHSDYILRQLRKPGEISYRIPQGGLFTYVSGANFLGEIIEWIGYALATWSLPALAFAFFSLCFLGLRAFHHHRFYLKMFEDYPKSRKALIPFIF
- Method Description: Inhibition of human type 2 steroid 5α-reductase (microsomes; testosterone to DHT conversion)
- Run Parameters: 20 min preincubation, pH 6.0, 8 nM testosterone, 20-40 min, 1 mM NADPH; read-out: IC50 Human Type 2 5AR
Give IC50 for every item shown.

Documented IC50 of CC1(C)CCC(NC(=O)[C@H]2CC[C@H]3[C@@H]4CC[C@H]5NC(=O)C=C[C@]5(C)[C@H]4CC[C@]23C)(c2ccc(C(C)(C)C)cc2)CC1 [Compound 17] : < 1 nM

Documented IC50 of C[C@]12C=CC(=O)N[C@@H]1CC[C@@H]1[C@@H]2CC[C@]2(C)[C@@H](C(=O)NC3(c4ccc(C(F)(F)F)cc4)CCCC3)CC[C@@H]12 [Compound 7] : < 1 nM

Documented IC50 of COc1ccc(C2(NC(=O)[C@H]3CC[C@H]4[C@@H]5CC[C@H]6NC(=O)C=C[C@]6(C)[C@H]5CC[C@]34C)CCCCC2)cc1 [Compound 11] : < 1 nM

// provenance: patent US5817818A
